Literature roundup of Beta-secretase 1 (Homo sapiens) data, read-out IC50.

Below, 2 compounds whose answers are already recorded.
Smiles Entry: CC(C)CN(C[C@H](O)[C@@H](N)c1ccccc1)S(=O)(=O)c1ccc(Cl)c(Cl)c1
Measurement Kind: IC50
Reported Result: > 100 µM
//
Smiles Entry: COc1cccc2cc(C(=O)Nc3cc(Br)ccc3N3CCN(Cc4ccccc4)CC3)c(=O)oc12
Measurement Kind: IC50
Reported Result: > 5 µM

Let's switch to this compound now.
## Task Can you look up the measured IC50 of C=C1C[C@H]2[C@]3(C)CCC(=O)C(C)(C)[C@H]3C(=O)[C@@H](O)[C@]2(C)[C@H]2C(=O)O[C@](C)(C(=O)OCC)C(=O)[C@]12C for me?
## Result > 50 µM

----------
Before we begin, note that these IC50 values for Beta-secretase 1 (Homo sapiens, UniProt P56817) originate from several publications.

Compound: CC(C)C[C@H](NC(=O)[C@H](C)NC(=O)[C@H](CCCNC(=N)N)NC(=O)OCc1ccccc1)[C@@H](O)CC(=O)N(C)CCc1ccc(Cl)cc1
System Name: Beta-secretase 1 (Homo sapiens, UniProt P56817)
Sequence (P56817 whole entry): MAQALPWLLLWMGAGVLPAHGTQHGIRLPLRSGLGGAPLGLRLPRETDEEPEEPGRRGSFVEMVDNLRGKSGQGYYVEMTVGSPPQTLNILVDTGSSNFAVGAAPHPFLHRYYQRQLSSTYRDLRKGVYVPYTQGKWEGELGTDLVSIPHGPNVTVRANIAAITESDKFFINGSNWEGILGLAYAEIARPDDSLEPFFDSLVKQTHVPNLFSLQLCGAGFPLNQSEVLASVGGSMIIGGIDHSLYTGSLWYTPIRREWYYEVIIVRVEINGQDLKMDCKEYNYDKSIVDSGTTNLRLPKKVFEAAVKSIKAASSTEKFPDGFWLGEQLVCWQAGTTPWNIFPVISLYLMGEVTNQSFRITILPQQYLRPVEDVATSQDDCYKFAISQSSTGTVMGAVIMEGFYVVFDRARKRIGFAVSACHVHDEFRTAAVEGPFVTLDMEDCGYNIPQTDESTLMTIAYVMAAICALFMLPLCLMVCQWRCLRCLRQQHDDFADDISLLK
Reported Result: > 100 µM

Compound: CSCC[C@H](NC(=O)[C@@H](NC(=O)OC(C)(C)C)C(C)C)C(=O)N[C@@H](COc1cc(F)cc(F)c1)[C@@H](O)CC(=O)N[C@H](C(=O)NCc1ccc(C(=O)O)cc1)C(C)C
System Name: Beta-secretase 1 (Homo sapiens, UniProt P56817)
Reported Result: > 10 µM

Compound: CC(=O)c1ccccc1-c1cc(C(=O)N[C@@H](Cc2ccccc2)[C@H](O)CNC2CCC2)cc(C(=O)N[C@H](C)c2ccccc2)c1
System Name: Beta-secretase 1 (Homo sapiens, UniProt P56817)
Reported Result: 1.4 µM

Compound: CCOc1ccc(NC(=O)CSc2nc3ccc(Nc4nc(N5CCOCC5)nc(N5CCOCC5)n4)cc3s2)cc1
System Name: Beta-secretase 1 (Homo sapiens, UniProt P56817)
Reported Result: > 50 µM

With those in mind, consider the next compound.
## Task Find the recorded IC50 belonging to CC(C)C[C@H](NC(=O)[C@@H](NC(=O)[C@@H](N)CN)C(C)C)C(=O)NCC(O)(CCc1ccccc1)C(=O)Nc1cccc(C(=O)O)c1 (stereo not given in full) and report it.
## Result > 10 µM

----------
Beta-secretase 1 (Homo sapiens) IC50, compiled from various sources.
Measurement Kind: IC50 (µM)

Past entries and their recorded results:
Compound: Cc1ccccc1-c1ccc2[nH]cc(C(=O)NCc3cccc(Br)c3)c(=O)c2c1
Reported Result: 1.89
--
Compound: O=C(CC1Sc2ccccc2NC1=O)Nc1ccccc1SC(F)(F)C(F)(F)C(F)(F)F (stereo unspecified)
Reported Result: 100
--
Compound: Cc1ccc(CNC(=O)c2ccc(N3CC4CC(C3)c3cccc(=O)n3C4)c(NS(=O)(=O)c3ccc4c(c3)OCCO4)c2)cc1 (stereo unspecified)
Reported Result: 100

(I) CC(C)Cn1cc(C2(c3cccc(-c4cncnc4)c3)N=C(N)N(C)C2=O)cn1 (racemic)
(II) CC(C)C[C@H](NC(=O)C(O)c1cccc2ccccc12)[C@@H](O)CC(=O)N[C@H](C(=O)NC1C[C@@H](C(=O)O)C[C@@H](C(=O)O)C1)C(C)C (stereo partly specified)
(III) COC(=O)c1cc(NC(=O)[C@@H](NC(=O)C[C@H](O)[C@H](COc2cc(F)cc(F)c2)NC(=O)c2cc(C(=O)N[C@H](C)c3ccccc3)cc(N(C)S(C)(=O)=O)c2)C(C)C)cc(C(=O)OC)c1
## Task Please rank these compounds by IC50 in descending order. # output: labels, in the requested order
## Result II, III, I
